Taken from PubChem BioAssay (NCI).

- System: UO-31 renal
- experiment: NCI-60 one-dose screen, 48 h
- condition: 10 µM unless noted
About 83,000 compounds went through this panel and 20% of them were active in at least one assay; those are over-represented in the sample as a whole. Active and inactive are the calls of the source. How the source made its calls: active means growth percent below 10; inactive means the rest.
Outcome codes: y = active, n = inactive

# compound, class label
records = [
    ("C=C(c1ccc(C(=O)O)cn1)c1cc2c(cc1C)C(C)(C)CCC2(C)C", "n"),
    ("COc1cc(-c2nc3occn3c2-c2ccnc(NCCCNS(=O)(=O)c3ccccc3)n2)ccc1F", "n"),
    ("CC(C)c1ccc(NC(=O)Nc2ccc(NC(=O)c3ccccc3N)cc2)cc1", "n"),
    ("N=c1sc(Cc2cc(Cl)ccc2Cl)cn1CC(=O)c1ccccc1", "n"),
    ("CCNC(=O)Oc1ccc(/C(=C(/C)Cc2ccc(OC)cc2)c2ccc(OCCN3CCCCCC3)cc2)cc1", "n"),
    ("NC(=O)OCCn1cc(-c2nc(-c3c[nH]c4ncccc34)cs2)c2ccccc21", "n"),
    ("CCNc1nc(-c2ccc(F)cc2)c(C#N)c(=O)n1C", "n"),
    ("COc1ccc(OC)c(Nc2nnc(-c3ccc(Cl)cc3)o2)c1", "n"),
    ("Clc1ccc(-c2nc(-c3c[nH]c4ncccc34)cs2)cc1", "n"),
    ("CN1CCN(C(=O)c2cc(-c3ccc4ncnc(N5CCc6cc(F)c(Cl)cc65)c4c3)cnc2N)CC1", "y"),
    ("CNC(=O)c1c(NC(=O)c2ccc(C(C)(C)C)cc2)sc2c(CN(C)C)c(O)ccc12", "y"),
    ("O=C(Nc1cccc(NC(=O)C2CCCCC2)c1)c1ccccn1", "n"),
    ("C[C@@H]1CC[C@@]2(OC1)O[C@H]1C[C@H]3[C@@H]4CC=C5C[C@@H](O[C@@H]6O[C@H](CO)[C@@H](O[C@@H]7O[C@@H](CO)[C@H](O)[C@H]7O)[C@H](O)[C@H]6O[C@@H]6O[C@@H](C)[C@H](O)[C@@H](O)[C@H]6O)CC[C@]5(C)[C@H]4CC[C@]3(C)[C@H]1[C@@H]2C", "y"),
    ("CCOC(=O)N1CCN(S(=O)(=O)c2oc(-c3ccc(Cl)cc3)nc2C#N)CC1", "n"),
    ("COc1cc2cc(Oc3ccc(NC(=O)Nc4ccccc4)cc3)c(C)nc2cc1OCCN1CCCCC1", "n"),
    ("COc1cc2cc(NCc3ccc(OC(F)F)cc3)nc(C)c2cc1OC", "n"),
    ("COc1cccc2c(N=NC(=O)c3ccc(S(N)(=O)=O)cc3)c(O)[nH]c12", "n"),
    ("O=C(c1ccc(Cl)cc1Cl)N1c2ccccc2Sc2ccccc21", "n"),
    ("COc1ccc(/C=C/C(=O)c2ccc(Nc3nc(Nc4ccc(F)cc4)nc(Nc4ccc(Cl)cc4)n3)cc2)cc1", "n"),
    ("Cc1ccc(-c2csc(NC(=O)N3CCN(c4cc5c(cc4F)c(=O)c(C(=O)O)cn5C4CC4)CC3)n2)cc1", "y"),
    ("Cc1nc2sc(C(=O)Nc3ccc(Cl)cc3)c(N)c2cc1C(O)c1ccccc1 (centres undefined)", "n"),
    ("O=C(CN1C(=O)NC2NC(=O)NC21)N/N=C/c1ccc(Cl)cc1Cl (centres undefined)", "n"),
    ("COc1cc(/C=C/c2cc(/C=C/c3ccc(O)c(OC)c3)n(C(=O)Nc3ccc(F)cc3)n2)ccc1O", "n"),
    ("Cc1ncc(C(=O)Nc2ccc(CN3CCN(C)CC3)c(C(F)(F)F)c2)cc1C#Cc1cnc(N)c2ccncc12", "y"),
]
